- TESTED ON: Na^+ /H^+ exchange (Rattus norvegicus)
- Construct: A supernatant was separated to prepare platelet-rich plasma; endogenous in cells
- EXPERIMENT NOTES: Na^+ /H^+ Exchange inhibitory activity (sodium propionate-induced swelling of platelets)
- CONDITIONS USED: rat platelet-rich plasma, 37° C.
PARAMETER MEASURED: IC50 (nM)

# COMPOUND, NUMERIC VALUE
data = [
    ("CCC1Oc2cc(C(=O)NC(=N)N)ccc2N(CC)C1=O (stereo not drawn)", 83),
    ("CCN1C(=O)C(C)Oc2cc(C(=O)NC(=N)N)ccc21 (stereo not drawn)", 160),
    ("CC[C@H]1Oc2cc(C(=O)NC(=N)N)ccc2N(C(C)C)C1=O.Cl [Example 18, hydrochloride]", 38),
]

---

Each entry below carries its recorded pIC50.
- TESTED ON: Na^+ /H^+ exchange (Rattus norvegicus, UniProt P26431)
- Construct: A supernatant was separated to prepare platelet-rich plasma; endogenous in cells
- Sequence (P26431 whole entry): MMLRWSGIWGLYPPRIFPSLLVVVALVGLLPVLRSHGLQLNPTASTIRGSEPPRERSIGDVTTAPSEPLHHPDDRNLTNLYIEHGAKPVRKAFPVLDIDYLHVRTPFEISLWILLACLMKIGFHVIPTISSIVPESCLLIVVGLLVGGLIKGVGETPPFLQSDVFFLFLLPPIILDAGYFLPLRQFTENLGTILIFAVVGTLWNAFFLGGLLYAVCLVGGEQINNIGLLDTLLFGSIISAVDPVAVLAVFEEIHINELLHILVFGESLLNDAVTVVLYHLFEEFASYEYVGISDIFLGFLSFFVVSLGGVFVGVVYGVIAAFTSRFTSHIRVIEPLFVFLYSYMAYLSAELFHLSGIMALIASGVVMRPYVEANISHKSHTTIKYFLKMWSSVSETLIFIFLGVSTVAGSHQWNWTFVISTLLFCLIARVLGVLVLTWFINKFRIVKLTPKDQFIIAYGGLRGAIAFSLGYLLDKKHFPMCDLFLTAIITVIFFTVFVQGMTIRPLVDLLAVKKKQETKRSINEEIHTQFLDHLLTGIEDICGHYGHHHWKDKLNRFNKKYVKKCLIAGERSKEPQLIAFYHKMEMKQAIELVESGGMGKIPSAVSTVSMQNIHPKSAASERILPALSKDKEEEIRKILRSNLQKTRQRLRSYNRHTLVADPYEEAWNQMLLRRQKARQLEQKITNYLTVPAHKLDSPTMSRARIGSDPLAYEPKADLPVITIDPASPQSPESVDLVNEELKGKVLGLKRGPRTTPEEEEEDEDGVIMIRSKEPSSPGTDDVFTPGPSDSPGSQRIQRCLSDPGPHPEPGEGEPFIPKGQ
- EXPERIMENT NOTES: Na^+ /H^+ Exchange inhibitory activity (sodium propionate-induced swelling of platelets)
- CONDITIONS USED: rat platelet-rich plasma, 37° C.
pIC50: −log10 of the molar value.
PARAMETER MEASURED: pIC50

# COMPOUND, NUMERIC VALUE
rows = [
    ("CCC1Oc2cc(C(=O)NC(=N)N)ccc2N(C(C)C)C1=O (centres unmarked)", 7.47),
    ("CC1Oc2cc(C(=O)NC(=N)N)ccc2N(C2CCCC2)C1=O (centres unmarked)", 7.21),
    ("CC(C)N1C(=O)C(C)(C)Oc2cc(C(=O)N=C(N)N)ccc21", 6.70),
    ("CCN1C(=O)C(C)(C)Oc2ccc(C(=O)NC(=N)N)cc21", 6.42),
    ("CC[C@H]1Oc2cc(C(=O)NC(=N)N)ccc2N(C(C)C)C1=O", 7.44),
]

---

Each entry below carries its recorded pIC50.
- TESTED ON: Na^+ /H^+ exchange (Rattus norvegicus, UniProt P26431)
- Construct: A supernatant was separated to prepare platelet-rich plasma; endogenous in cells
- EXPERIMENT NOTES: Na^+ /H^+ Exchange inhibitory activity (sodium propionate-induced swelling of platelets)
- CONDITIONS USED: rat platelet-rich plasma, 37° C.
pIC50: −log10 of the molar value. Counter-ions that a name gives are not always drawn.

# COMPOUND, pIC50
records = [
    ("CC[C@@H]1Oc2cc(C(=O)NC(=N)N)ccc2N(CC)C1=O.Cl [Example 20, hydrochloride]", 7.31),
    ("N=C(N)NC(=O)c1nc(Cl)c(N)nc1N [Amiloride, amiloride, reference compound]", 4.89),
    ("CC[C@@H]1Oc2cc(C(=O)NC(=N)N)ccc2N(C(C)C)C1=O [Example 14]", 7.14),
    ("CC(C)N1C(=O)COc2cc(C(=O)NC(=N)N)ccc21 [Example 3]", 6.77),
    ("CC(C)N1C(=O)C(C)(C)Oc2ccc(C(=O)N=C(N)N)cc21 [Example 5, hydrochloride]", 6.92),
    ("CCN1C(=O)COc2cc(C(=O)NC(=N)N)ccc21 [Example 12]", 6.44),
    ("CCN1C(=O)C(C)Oc2ccc(C(=O)NC(=N)N)cc21 (centres unmarked) [Example 6]", 6.54),
    ("CC[C@H]1Oc2cc(C(=O)NC(=N)N)ccc2N(C(C)C)C1=O.CS(=O)(=O)O [Example 19, methanesulfonate]", 7.36),
]

---

Each entry below carries its recorded IC50.
- TESTED ON: Na^+ /H^+ exchange (Rattus norvegicus, UniProt P26431)
- Construct: A supernatant was separated to prepare platelet-rich plasma; endogenous in cells
- EXPERIMENT NOTES: Na^+ /H^+ Exchange inhibitory activity (sodium propionate-induced swelling of platelets)
- CONDITIONS USED: rat platelet-rich plasma, 37° C.

# COMPOUND, READING UNIT, IC50
rows = [
    ("CC1Oc2cc(C(=O)NC(=N)N)ccc2N(C(C)C)C1=O (stereo not drawn) [Example 2]", "nM", 94),
    ("CC[C@@H]1Oc2cc(C(=O)NC(=N)N)ccc2N(CC)C1=O.CS(=O)(=O)O [Example 21, methanesulfonate]", "nM", 89),
    ("CC[C@H]1Oc2cc(C(=O)NC(=N)N)ccc2N(CC)C1=O [Example 17]", "nM", 71),
]

Hello, the source for this data is patent US5597820A, in case you need it.
